The measured values listed here are drawn from patent US20100113510A1.

Hi there, I'd appreciate the recorded pIC50 for every entry that follows.
Target: human muscarinic acetylcholine M3 receptor (M3-ACh) (Homo sapiens)
Construct: expressed in transfected cells; host or cells: CHO-K1 (Chinese Hamster Ovary) cell membranes
Sequence (P20309 whole entry): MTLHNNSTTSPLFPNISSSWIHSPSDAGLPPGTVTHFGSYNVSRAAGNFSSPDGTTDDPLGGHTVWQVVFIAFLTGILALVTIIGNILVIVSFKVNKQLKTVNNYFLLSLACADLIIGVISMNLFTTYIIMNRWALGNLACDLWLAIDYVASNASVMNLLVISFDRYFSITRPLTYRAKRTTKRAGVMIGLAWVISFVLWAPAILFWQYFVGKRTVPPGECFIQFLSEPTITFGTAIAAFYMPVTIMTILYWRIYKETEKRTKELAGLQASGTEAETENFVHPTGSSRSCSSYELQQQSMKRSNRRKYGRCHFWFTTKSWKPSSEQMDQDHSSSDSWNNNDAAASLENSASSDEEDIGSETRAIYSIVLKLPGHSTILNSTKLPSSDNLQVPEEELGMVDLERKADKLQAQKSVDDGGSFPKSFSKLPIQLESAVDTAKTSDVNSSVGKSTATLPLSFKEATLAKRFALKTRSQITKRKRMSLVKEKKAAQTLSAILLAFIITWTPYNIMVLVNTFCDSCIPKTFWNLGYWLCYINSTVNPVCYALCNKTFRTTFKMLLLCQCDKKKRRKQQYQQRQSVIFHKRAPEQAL
Assay: biochemical
Assay type: binding
Conditions: pIC50 (M3 Binding IC50 classes)
pIC50: −log10 of the molar value.

Query string: Give the measured pIC50 for CC1(C)CN(C(C)(C(=O)O[C@H]2C[N+]3(CCCOc4ccccc4)CCC2CC3)c2ccc(Cl)cc2)C1 (single isomer, unassigned) [Example 47]
Result string: > 8.70

Query string: Look up and report measured pIC50 for this entry: CC(C(=O)O[C@H]1C[N+]2(CC(=O)Nc3ccon3)CCC1CC2)(c1ccccc1)N1CCCCCC1 (single isomer, unassigned) [Example 90]
Result string: > 8.70

Query string: Return pIC50 for the following compound: "C[C@@](C(=O)O[C@H]1C[N+]2(CC(=O)c3cccc(Cl)c3)CCC1CC2)(c1ccccc1)N1CCCCC1"
Result string: > 8.70

Query string: Assign pIC50 to the following record: CC(C(=O)O[C@H]1C[N+]2(CCCOc3ccccc3)CCC1CC2)(c1ccccc1)N1CCCCCC1 (single isomer, unassigned)
Result string: > 8.70

Query string: Quickly give me recorded pIC50 for "C[C@@](C(=O)O[C@H]1C[N+]2(CC(=O)c3cccc(F)c3)CCC1CC2)(c1ccccc1)N1CCCCC1"
Result string: > 8.70

API: the following record is the query input.
Query string: Query pIC50 for "C[C@@](C(=O)O[C@H]1C[N+]2(CC(=O)NCc3ccccc3)CCC1CC2)(c1ccccc1)N1CCCCC1"
Result string: 8.00 to 8.70

###

Biological target: human muscarinic acetylcholine M3 receptor (M3-ACh) (Homo sapiens)
Construct: expressed in transfected cells; host or cells: CHO-K1 (Chinese Hamster Ovary) cell membranes
Test: biochemical
Type: binding
Conditions: pIC50 (M3 Binding IC50 classes)
Give IC50 for every item shown.

Worked examples follow.
Query string: Consider the compound "C[C@@](C(=O)O[C@H]1C[N+]2(CC(=O)Nc3ccc4ncnn4c3)CCC1CC2)(c1ccccc1)N1CCCCC1" . State its measured IC50.
Result string: < 2 nM

Query string: Fill in IC50 for record "C[C@@](C(=O)O[C@H]1C[N+]2(CC(=O)c3ccc(F)cc3F)CCC1CC2)(c1ccccc1)N1CCCCC1"
Result string: 2 to 10 nM

Query string: Provide IC50 value for the following compound: CC(C(=O)O[C@H]1C[N+]2(CCCc3ccccc3)CCC1CC2)(c1ccccc1)N1CCSCC1 (single isomer, unassigned) [Example 105]
Result string: 2 to 10 nM

More entries:
Query string: Dear colleague, please send me the reported IC50 for CC(C(=O)O[C@H]1C[N+]2(CCCOc3ccccc3)CCC1CC2)(c1ccccc1)N1CCSCC1 (single isomer, unassigned) when you can.
Result string: < 2 nM
